- ASSAYED_TARGET: T1, Biotinylated TEM1-Fc (murine, UniProt Q9HCU0 18-687 (human entry), limits assumed, biotinylated (sites not given))
- T1 construct: Ligand captured on the streptavidin sensor surface in the Biacore analysis; also called rTEM-1-Fc; not shown: Fc portion of a murine gamma heavy chain
- T1 sequence (looked up): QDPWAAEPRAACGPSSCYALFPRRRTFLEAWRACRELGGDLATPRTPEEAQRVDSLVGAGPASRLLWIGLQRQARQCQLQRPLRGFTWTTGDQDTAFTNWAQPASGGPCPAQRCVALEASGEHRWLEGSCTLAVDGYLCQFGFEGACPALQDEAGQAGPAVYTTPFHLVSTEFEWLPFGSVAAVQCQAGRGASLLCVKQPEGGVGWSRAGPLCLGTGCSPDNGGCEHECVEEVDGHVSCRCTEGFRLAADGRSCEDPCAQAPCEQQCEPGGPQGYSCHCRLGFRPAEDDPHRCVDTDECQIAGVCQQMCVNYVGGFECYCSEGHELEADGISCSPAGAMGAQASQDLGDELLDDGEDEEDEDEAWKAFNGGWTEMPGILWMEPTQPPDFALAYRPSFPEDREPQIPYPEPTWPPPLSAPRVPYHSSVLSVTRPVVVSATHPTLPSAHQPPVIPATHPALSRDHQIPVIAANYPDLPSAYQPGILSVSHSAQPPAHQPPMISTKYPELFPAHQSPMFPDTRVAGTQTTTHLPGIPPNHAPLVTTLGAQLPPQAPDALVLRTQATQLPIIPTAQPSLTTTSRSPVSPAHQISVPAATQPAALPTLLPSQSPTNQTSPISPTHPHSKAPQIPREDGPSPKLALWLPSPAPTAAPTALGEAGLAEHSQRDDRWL
- ASSAY_PROTOCOL: Biacore SPR, biotinylated TEM1-Fc on streptavidin surface, antibody as analyte, 1:1 model
QUANTITY_NAME: koff (s⁻¹)

* Antibody 15F8 (antibody, V domains shown, Rat monoclonal antibody from hybridoma, IgG2a/kappa; also called 15F8.G6.B4; ATCC PTA-12540) VH: EVQLVESGGGLVQPGRSMKLSCSASGFTFRNYYMAWVRQAPTRGLEWVASTGTGGDFTYYRDSVKGRFTISRDTAENTLYLQMDSLRSEDTATYYCARAYGYFDYWGQGVKVTVSS VL: DIVLTQSPTTLSVTPGETVSLSCRASHSVGTNLHWYQQKPNESPRLLIKYVSQSNSGIPSRFSASGSGTDFTLNIKNVEFNDVSSYFCQQTQSWPLTFGAGTKLEIK | 1.65e-07
* Antibody 11D1 (antibody, V domains shown, Rat monoclonal antibody from hybridoma, IgG2a/kappa; also called 11D1.G10.F8; ATCC PTA-12541) VH: EVQLVESDGGLVQPGRSLKLSCAASGFSFSDYYMAWVRQAPTKGLEWVATISYDGSGSYYRDSVKGRFTVSRDNAKTTLYLQMDSLRSEDTATYYCARGGGLDYWGQGVMVTVSS VL: DNVLTQAPLAVSVTPGESASISCRSSKSLLSIEGINSLYWYLQKPGKSPQLLLFRMSNLASGVPDRFSGSGSETDFTLKISQVETEDVGVYYCAQFLEFPFTFGSGTKLEIK | 9.57e-05
